# systemTested: hERG (KCNH2) (Homo sapiens, UniProt Q12809)
# Sequence (Q12809 whole entry): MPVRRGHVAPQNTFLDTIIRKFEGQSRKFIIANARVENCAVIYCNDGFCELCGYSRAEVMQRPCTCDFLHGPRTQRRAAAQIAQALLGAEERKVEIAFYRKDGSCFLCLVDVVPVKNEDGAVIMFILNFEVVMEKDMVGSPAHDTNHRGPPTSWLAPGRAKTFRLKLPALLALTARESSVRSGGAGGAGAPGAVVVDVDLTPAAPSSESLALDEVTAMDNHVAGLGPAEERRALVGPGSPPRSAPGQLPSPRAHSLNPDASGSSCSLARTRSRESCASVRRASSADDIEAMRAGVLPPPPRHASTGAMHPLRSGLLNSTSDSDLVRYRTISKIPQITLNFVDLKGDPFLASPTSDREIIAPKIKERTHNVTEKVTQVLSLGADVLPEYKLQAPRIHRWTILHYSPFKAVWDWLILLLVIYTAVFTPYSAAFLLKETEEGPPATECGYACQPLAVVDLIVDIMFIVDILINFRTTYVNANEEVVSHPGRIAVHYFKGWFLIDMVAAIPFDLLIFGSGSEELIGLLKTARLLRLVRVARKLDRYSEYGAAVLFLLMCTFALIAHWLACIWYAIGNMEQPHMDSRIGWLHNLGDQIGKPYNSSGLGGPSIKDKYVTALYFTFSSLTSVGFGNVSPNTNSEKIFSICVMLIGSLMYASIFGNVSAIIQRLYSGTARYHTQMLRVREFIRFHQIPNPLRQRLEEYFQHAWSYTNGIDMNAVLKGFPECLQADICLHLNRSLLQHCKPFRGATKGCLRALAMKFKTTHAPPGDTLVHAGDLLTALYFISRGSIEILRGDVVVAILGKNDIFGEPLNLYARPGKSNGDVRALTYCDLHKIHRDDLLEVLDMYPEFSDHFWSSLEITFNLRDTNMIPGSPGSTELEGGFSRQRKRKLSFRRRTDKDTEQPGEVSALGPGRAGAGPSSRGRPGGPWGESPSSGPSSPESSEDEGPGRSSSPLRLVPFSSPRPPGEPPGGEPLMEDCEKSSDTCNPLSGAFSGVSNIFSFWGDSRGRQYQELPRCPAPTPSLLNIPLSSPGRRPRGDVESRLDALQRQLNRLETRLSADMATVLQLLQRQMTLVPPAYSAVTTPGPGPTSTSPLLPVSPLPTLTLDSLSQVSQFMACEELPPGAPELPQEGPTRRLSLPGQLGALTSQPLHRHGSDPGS
# measurementDescription: Inhibition of hERG at 1 uM relative to control
# Assay type: toxicity
measuredParameter: inhibition at 1 µM (%)
Only the number, expressed in %, is required.

compound | inhibition at 1 µM (%)
CN[C@@H]1COc2c(S(=O)(=O)NC(=O)Nc3c4c(cc5c3CCC5)CCC4)cnn2C1 | -3.1

Proceeding to the next compound to report its inhibition at 1 µM.
Problem: Would you kindly share the measured inhibition at 1 µM for O=C(Nc1c2c(cc3c1CCC3)CCC2)NS(=O)(=O)c1cnn2c1OCCC2 ?
Solution: 4.1

Source listed as ChEMBL document CHEMBL5214989.
